Reference source for all entries: PubChem BioAssay (NCI)

tested on: SR leukemia; assay: NCI-60 one-dose screen, 48 h; details: 10 µM unless noted
About 83,000 compounds went through this panel and 20% of them were active in at least one assay; those are over-represented in the sample as a whole. The source made the active and inactive calls. Rule for the calls: active = growth percent below 10; inactive = the rest.
The reply should name one outcome from 1 for active, -1 for inactive

Reference set (5 entries):
compound | class assignment
CC/C=C\C[C@H](F)C/C=C1/C(=O)C=C[C@@H]1C/C=C\CCCC(=O)OC | 1
COc1ccc(-n2cc(-c3ccccc3)c3c(SCC(=O)N/N=C/c4ccc([N+](=O)[O-])cc4)ncnc32)cc1 | -1
Cc1ccc(N)cc1F | -1
COc1ccc(/C=C/C(=O)c2c(O)c(C)c(O)c3c2OC2=CC(O)=C(C(C)=O)C(=O)[C@]23C)cc1 | 1
COc1ccc2nc3cc(Cl)ccc3c(N3CCN(c4nccc(NCc5ccccc5)n4)CC3)c2c1 | -1

Query block: Per the records of this test, what outcome belongs to COc1cc(OC)c(/C=C/C(=O)c2c(OC)cc(OC)cc2OC)c(OC)c1 ?
Result block: 1

Query block: Request: Cc1ccc(-c2nc(/C=N/Nc3cc(C)nc4ccc(Cl)cc34)c(C)o2)cc1
Result block: 1

Query block: Now the compound Cc1ccc2c(c1)n([O-])c1cc(Cl)ccc1[n+]2=O
Result block: 1

Query block: Another compound to check: Cc1cc2cc3cc(C)c(N(C)C)cc3nc2cc1N(C)C
Result block: -1

Query block: Thanks! And CC/C=C\C[C@H](O)C/C=C1/C(=O)C=C[C@@H]1C/C=C\CCCC(=O)OC(C)C ?
Result block: 1

Query block: Follow-up entry: COc1ccc(-c2c(C)noc2-c2ccc(O)cc2O)cc1
Result block: -1

Query block: Also, CCN(CC)c1ccc(/C=C/C2=[N+](C)c3ccccc3C2(C)C)cc1 please.
Result block: -1

Query block: Same read-out for CC/C(=C(\c1ccc(O)cc1)c1ccc(OCCN(C)CCN(C)C(=O)CCCCC(=O)c2c(C)[nH]c(/C=C3\N=C(c4ccc[nH]4)C=C3OC)c2C)cc1)c1ccccc1 ?
Result block: 1

Query block: Thanks! And CCC(C)[C@@H]1NC(=O)[C@@H]2CCCN2C(=O)[C@H](Cc2ccccc2)NC(=O)[C@@H]2CCCN2C(=O)[C@H](Cc2ccccc2)NC(=O)[C@@H]2CCCN2C(=O)[C@H](Cc2ccccc2)NC1=O (stereo partly specified) ?
Result block: -1

----------
tested on: UO-31 renal; test: NCI-60 one-dose screen, 48 h; conditions: 10 µM unless noted
This is part of a sample that, as a whole, favours compounds with a hit. Of some 83,000 tested, about 20% had one in any assay. Active and inactive are the calls of the source. The calls were made as follows: active = growth percent below 10; inactive = the rest.
I would appreciate it if you answered using one of these outcomes: active, inactive

Query block: Which outcome did this test record for the molecule C/C(=C(/c1ccc(O)cc1)c1ccc(OCCN2CCCC2)cc1)c1ccccc1 ?
Result block: inactive

Query block: Next: COc1ccc2c(c1)C(=O)/C(=C/c1cccc(OCC(=O)Nc3nc4c(s3)CCCC4)c1)O2
Result block: active

Query block: Next record, please: CCOC(=O)CC(=O)c1c(C)cc(C)cc1C
Result block: inactive

Query block: Cool, now O=S(=O)(Nc1ccc(Cl)cc1Cl)c1ccc(-c2cnc(C3CC3)o2)cc1
Result block: inactive

Query block: Follow-up entry: COc1ccc(C2c3ccc4ccccc4c3Oc3ncnc(N)c32)cc1 (stereo not given)
Result block: inactive

----------
Consider the following molecules; for each one, report its growth.
tested on: SK-MEL-28 melanoma; experiment: NCI-60 one-dose screen, 48 h (100 = growth as untreated, 0 = no growth, -100 = all killed); settings: 10 µM unless noted
Compounds without any hit were thinned out: in the full panel of roughly 83,000, 20% have a hit.
Give bare numbers, in %.

molecule | system tested | units symbol | growth
ClC1=C2NC=NC2n2c(nnc2-c2ccc(Cl)cc2)N1 (stereo not given) | SK-MEL-28 melanoma | % | 102
Cc1sc2nc3[nH]/c(=C\c4ccc(Cl)cc4)c(=O)n3c(=O)c2c1C | SK-MEL-28 melanoma | % | 99.8
O=C1Nc2ccccc2/C1=C/C(=N/c1nnc(-c2ccccc2)s1)c1ccccc1 | SK-MEL-28 melanoma | % | 86.4
COc1ccccc1N1CCN(CCn2c(=O)c3c(c4ccccc4n3C)n(C)c2=O)CC1 | SK-MEL-28 melanoma | % | 115

Now examine the next entry.
Query block: Name the recorded growth for O=C(COCc1c(-c2ccccc2)no[n+]1[O-])Nc1ccc(C(=O)/C=C/c2ccc3c(c2)OCO3)cc1 .
Result block: 112

----------
system: ACHN renal; assay: NCI-60 one-dose screen, 48 h (100 = growth as untreated, 0 = no growth, -100 = all killed); conditions: 10 µM unless noted
The panel holds about 83,000 compounds, 20% with a hit somewhere; the sample as a whole holds those more often.
measurement label: growth (%)
Numbers only, in %.

smiles str | measured
COc1nc2c(cc1S(=O)(=O)c1ccccc1)CCc1c-2cnn1-c1ccc(Cl)cc1 | 102
CC#Cc1nc2ccccc2c(=O)[nH]1 | 28.8
COc1ccc(-c2cc(=O)[nH]c3c(OC)c4ccccc4c(OC)c23)cc1 | 50.5

Dear reader, for each entry below, please note its growth.
1. CC(=O)N1CC(Nc2ccc(OC(F)(F)F)cc2)=CC1=O
2. Nc1cc(O)cc2cccnc12
3. CCOC(=O)C(=Cc1ccccc1F)C(=O)OCC
4. O=C1/C(=C/c2ccc(Cl)c(Cl)c2)CN(C(=O)CCN2CCC(=NO)CC2)C/C1=C\c1ccc(Cl)c(Cl)c1
5. COc1cc(-c2nc3ccccc3s2)ccc1NC(=O)COc1ccc(Cl)cc1

Result block:
1: 53.4; 2: 77.3; 3: 92.7; 4: -98.4; 5: 40

Parameters: items (list). Returns: growth for each item.
1. O=C(CN1CCOCC1)Nc1ccc(Cn2nnc3c2C(=O)c2nnn(Cc4ccc(NC(=O)CN5CCOCC5)cc4)c2C3=O)cc1
2. CCN(CC)Cc1cc(Nc2c3ccc(Cl)cc3nc3c(C)cccc23)ccc1O
3. CC/C(Cc1ccccc1)=C(/c1ccc(O)cc1)c1ccc(OCCN2CCCC2)cc1

Result block:
1. 58.7
2. -86.4
3. -68.5

----------
Field: growth. Provide a value for each of the compounds that follow.
system: RPMI-8226 leukemia; assay: NCI-60 one-dose screen, 48 h (100 = growth as untreated, 0 = no growth, -100 = all killed); conditions: 10 µM unless noted
Compounds without any hit were thinned out: in the full panel of roughly 83,000, 20% have a hit.
Give bare numbers, in %.

Consider the reported growth for these compounds:
compound | system tested | growth (%)
CCOC(=O)c1nc(Nc2cc(C)[nH]n2)c2ccccc2n1 | RPMI-8226 leukemia | 114
Cc1ccc(NC(=O)c2sc3nc4c(cc3c2N)C(=O)CCC4)cc1C | RPMI-8226 leukemia | 11.4
O=C(O)C(O)C(O)C(=O)O.[NH-]C1CCCCC1[NH-].[Pt+2] (stereo unspecified) | RPMI-8226 leukemia | 110
N=S(=O)(NC(=O)c1ccc(Cl)cc1Cl)c1ccc(Br)s1 (stereo unspecified) | RPMI-8226 leukemia | 86.5
C[C@@H]1CCC2=C(CCC[C@]2(C)C(=O)O)[C@@]1(C)CCc1ccoc1 | RPMI-8226 leukemia | 92.9
NC(CC(=O)O)C(=O)OCc1ccccc1 (stereo unspecified) | RPMI-8226 leukemia | 98.7
Oc1c(Cl)cc(Cl)cc1CNc1nccnn1 | RPMI-8226 leukemia | 105
OC(c1cc(-c2ccccc2)nc2ccc(Cl)cc12)C1CCCCN1 (stereo unspecified) | RPMI-8226 leukemia | 13.1
COc1cnc2c(c1)C(=O)c1c-2n(CCCN2CCNCC2)c(=O)c2cc([N+](=O)[O-])ccc12 | RPMI-8226 leukemia | -37.1
CS(=O)CCCCCN=C=S (stereo unspecified) | RPMI-8226 leukemia | 5.22

Now take the following compound into account.
Query block: May I ask what growth has been recorded for COc1cccc(-n2cc(-c3nc(Nc4cc(C)[nH]n4)c4ccccc4n3)nn2)c1 ?
Result block: 48.4

----------
Test system: HCT-116 colon
Test: NCI-60 one-dose screen, 48 h (100 = growth as untreated, 0 = no growth, -100 = all killed)
Details: 10 µM unless noted
Method: Growth inhibition of the HCT-116 human tumor cell line is measured as a screen for anti-cancer activity. Cells are grown in 96 well plates and exposed to the test compound for 48 hours. Compounds are tested at a single concentration, which is 10^-5 M for most compounds. The reported endpoint is percent growth (GI% or GIPRCNT), where numbers from 0 - 100% represent growth inhibition, and numbers from -100% - 0 represent cell death. For example, a value of 40 represents 60% growth inhibition. […]
About 83,000 compounds went through this panel and 20% of them were active in at least one assay; those are over-represented in the sample as a whole. The source made the active and inactive calls. How the source made its calls: active means growth percent below 10; inactive means the rest.
For each of the compounds below, state its growth.

compound | growth
O=C(NCc1cccc(C(F)(F)F)c1)[C@H](CCC(=O)N1CCN(C2CCCCC2)CC1)N1C(=O)[C@@H](N2C(=O)OC[C@@H]2c2ccccc2)[C@H]1/C(Cl)=C/c1ccccc1 | 34.3% (inactive)
CN1/C(=C\C=C\C2=[N+](C)c3ccccc3C2(C)C)C(C)(C)c2ccccc21 | 0.854% (active)
N#Cc1c2c(nc3n[nH]c(N)c13)CCCC2 | 101% (inactive)
CCNS(=O)(=O)c1ncnc2nc[nH]c12 | 117% (inactive)
CCOC(=O)c1c2c(n3ccc(NC(=O)CCN(CC)CC)cc13)C(=O)c1ncccc1C2=O | 49.3% (inactive)
CN1CCN(c2ccc3nc(-c4ccc5nc(-c6ccc(OCCC(C)(C)C)cc6)[nH]c5c4)[nH]c3c2)CC1 | -95% (active)
CCC(c1ccc(O)cc1)C(CC)c1ccc(O)c(F)c1 (stereo not given) | 59% (inactive)
O=C1/C(=C/c2ccc(Cl)c(Cl)c2)CN(C(=O)CCN2CCC(=NO)CC2)C/C1=C\c1ccc(Cl)c(Cl)c1 | -47.1% (active)
COC1=CC(=O)C(OC)=C(OC)C1=O | 92.3% (inactive)
COc1ccc(-c2cc(-c3ccc(N(C)C)cc3)nc(NC(=O)c3ccncc3)n2)cc1 | 94% (inactive)

Batch request: growth for each of the following compounds.
1. COc1ccc(C(=O)c2sc3nc(-c4ccccc4OC)ccc3c2N)cc1OC
2. Cc1cc(Nc2nc(N3CCN(C)CC3)nc3ccccc23)n[nH]1
3. CCCCCn1cnc2c(=S)nc[nH]c21
4. C=C1CCC2C3(C)COC(c4ccc(SC)cc4)OC3CCC2(C)C1C/C=C1/C(=O)OCC1O (stereo not given)

Result block:
["39.3% (inactive)", "50.3% (inactive)", "106% (inactive)", "11.2% (inactive)"]
